# experimental protocol: IGROV1 ovarian cancer cell cytotoxicity, dose response, PAX8 inhibitor project, plate reader, dry powder samples (AID 743043);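 also: more negative means fewer viable cells or more cytotoxicity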
# assay conditions: series mostly up to 35 µM
Results with a measured potency or affinity are listed apart. Results filed as inconclusive are left out. Calls of active or inactive are those of the source. No rule for the calls is given here.
quantity name: outcome

{"compound": "Cc1ccc(S(=O)(=O)N(C)C[C@@H]2Oc3cc(C#Cc4ccncc4)ccc3S(=O)(=O)N([C@H](C)CO)C[C@H]2C)cc1", "recorded value": "inactive"}
{"compound": "C[C@@H](O)C#Cc1ccc2c(c1)O[C@H](CN(C)Cc1ccc(-c3ccccc3)cc1)[C@@H](C)CN([C@@H](C)CO)S2(=O)=O", "recorded value": "inactive"}
{"compound": "C[C@@H]1CN([C@H](C)CO)C(=O)c2cc(NC(=O)Nc3ccc(C(F)(F)F)cc3)ccc2O[C@@H](C)CCCCO[C@H]1CN(C)Cc1ccccc1", "recorded value": "inactive"}
{"compound": "C[C@@H]1CN([C@H](C)CO)C(=O)c2cc(NC(=O)c3ccccc3)ccc2O[C@@H](C)CCCCO[C@@H]1CN(C)Cc1ccc(C(F)(F)F)cc1", "recorded value": "inactive"}
{"compound": "O=C(Nc1ccc(C(F)(F)F)cc1)N1C[C@@H]2N[C@H](C1)C2c1ccc(-c2cccc(F)c2)cc1 (some centres not stated)", "recorded value": "inactive"}
{"compound": "CC1(C)CC(=O)c2sc(NC(=O)CCS(=O)(=O)c3ccccc3)nc2C1", "recorded value": "inactive"}
{"compound": "C[C@@H]1CN([C@@H](C)CO)S(=O)(=O)c2ccc(C#Cc3ccncc3)cc2O[C@H]1CN(C)C(=O)Nc1ccc2c(c1)OCO2", "recorded value": "inactive"}
